The measurements presented in this section are drawn from paper PMC7721897.

- TEST_DESCRIPTION: Tissue distribution of PZ-DHA and metabolites after intraperitoneal injection
- Format: in vivo, Balb/c female mice
- APPLIED_CONDITIONS: female, Balb/c, mouse, kidneys/serum, intraperitoneal, 100 mg/kg; 90 min; read-out: Tissue/serum ratio of PZ-DHA (Mean ± SD) Kidneys/serum
- Method: Figure 5 PZ-DHA and metabolites were detected in various organs of PZ-DHA-treated Balb/c female mice. PZ-DHA (100 mg/kg) was administered by intraperitoneal injection to Balb/c female mice and liver, lungs, kidneys, spleen and brain were harvested. Organs were homogenized and PZ-DHA in (A) liver, kidneys, lungs, spleen, and brain was identified and quantified using a calibration curve. […]

MOLECULE	Kp at 90 min
CC/C=C\C/C=C\C/C=C\C/C=C\C/C=C\C/C=C\CCC(=O)OC[C@H]1O[C@@H](Oc2cc(O)cc(O)c2C(=O)CCc2ccc(O)cc2)[C@H](O)[C@@H](O)[C@@H]1O [PZ-DHA, phloridzin docosahexaenoate]	0.89

* * *

- TEST_DESCRIPTION: Tissue distribution of PZ-DHA and metabolites after intraperitoneal injection
- Type: in vivo, Balb/c female mice
- APPLIED_CONDITIONS: female, Balb/c, mouse, lungs/serum, intraperitoneal, 100 mg/kg; 120 min; read-out: Tissue/serum ratio of PZ-DHA (Mean ± SD) Lungs/serum

COMPOUND	Kp at 120 min
CC/C=C\C/C=C\C/C=C\C/C=C\C/C=C\C/C=C\CCC(=O)OC[C@H]1O[C@@H](Oc2cc(O)cc(O)c2C(=O)CCc2ccc(O)cc2)[C@H](O)[C@@H](O)[C@@H]1O [PZ-DHA, phloridzin docosahexaenoate]	3.82

* * *

- TEST_DESCRIPTION: Serum pharmacokinetics after intraperitoneal injection
- Assay type: in vivo, Balb/c female mice
- APPLIED_CONDITIONS: female, Balb/c, mouse, serum, ip; 100 mg/kg intraperitoneal; read-out: Elimination rate (λz) (converted)
REPORTED_METRIC: k el (s⁻¹)

COMPOUND	EXPERIMENTAL_RESULT
CC/C=C\C/C=C\C/C=C\C/C=C\C/C=C\C/C=C\CCC(=O)OC[C@H]1O[C@@H](Oc2cc(O)cc(O)c2C(=O)CCc2ccc(O)cc2)[C@H](O)[C@@H](O)[C@@H]1O [PZ-DHA, phloridzin docosahexaenoate]	0.0004

* * *

- TEST_DESCRIPTION: Tissue distribution of PZ-DHA and metabolites after intraperitoneal injection
- Type: in vivo, Balb/c female mice
- APPLIED_CONDITIONS: female, Balb/c, mouse, brain/serum, intraperitoneal, 100 mg/kg; 240 min; read-out: Tissue/serum ratio of PZ-DHA (Mean ± SD) Brain/serum

COMPOUND	Kp at 240 min
CC/C=C\C/C=C\C/C=C\C/C=C\C/C=C\C/C=C\CCC(=O)OC[C@H]1O[C@@H](Oc2cc(O)cc(O)c2C(=O)CCc2ccc(O)cc2)[C@H](O)[C@@H](O)[C@@H]1O [PZ-DHA, phloridzin docosahexaenoate]	1.94

* * *

- TEST_DESCRIPTION: Serum pharmacokinetics after intraperitoneal injection
- Format: in vivo, Balb/c female mice
- APPLIED_CONDITIONS: female, Balb/c, mouse, serum, ip, 100 mg/kg, 100 mg/kg intraperitoneal; read-out: Volume of distribution (Vd/F)
REPORTED_METRIC: Vd/F

MOLECULE	EXPERIMENTAL_RESULT
CC/C=C\C/C=C\C/C=C\C/C=C\C/C=C\C/C=C\CCC(=O)OC[C@H]1O[C@@H](Oc2cc(O)cc(O)c2C(=O)CCc2ccc(O)cc2)[C@H](O)[C@@H](O)[C@@H]1O [PZ-DHA, phloridzin docosahexaenoate]	0.057 L
